# system: MAGL (Mus musculus, UniProt O35678)
# Construct: from tissue; host or cells: brain of wild-type C57Bl/6J mice
# Sequence (O35678 whole entry): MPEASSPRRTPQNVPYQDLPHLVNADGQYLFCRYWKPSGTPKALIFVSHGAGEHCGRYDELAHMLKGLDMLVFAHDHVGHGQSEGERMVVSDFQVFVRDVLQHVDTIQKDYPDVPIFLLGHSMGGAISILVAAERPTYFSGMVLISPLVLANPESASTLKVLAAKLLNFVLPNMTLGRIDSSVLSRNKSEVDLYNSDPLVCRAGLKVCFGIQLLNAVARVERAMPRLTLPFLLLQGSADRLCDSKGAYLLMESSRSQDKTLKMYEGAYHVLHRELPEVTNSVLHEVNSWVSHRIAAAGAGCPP
# assay.summary: Mouse brain proteomes from inhibitor treated mice (oral gavage, brain proteomes analyzed 4 h after administration)
# Assay type: in vivo, mouse (C57Bl/6J)
# run.conditions: brain proteome 4 h after administration, read-out: % Inh 5 mg/kg MGLL (Mouse)
measure: inhibition at 5 mg/kg

compound=CS(=O)(=O)N1CC2(CCN(c3cc(Cl)ccc3CN3CCN(C(=O)OC(C(F)(F)F)C(F)(F)F)CC3)C2)C1 reported_value="≥ 75%"
compound="O=C(O)CN1CC2CC1CN2c1cc(CN2CC3(CCN(C(=O)OC(C(F)(F)F)C(F)(F)F)CC3)C2)cc(C(F)(F)F)c1 (stereo not shown)" reported_value="≤ 25%"

Let's switch to this compound now.
Q: What does the record list as inhibition at 5 mg/kg for "CC(=O)N1CCC2(CC1)CN(c1cc(Cl)ccc1CN1CCN(C(=O)OC(C(F)(F)F)C(F)(F)F)CC1)C2" ?
A: ≥ 75%
